Molecular target: α2a adrenoreceptor (Homo sapiens, UniProt P08913)
Construct: expressed in transfected cells; host or cells: CHO (Chinese hamster ovary) cells, membranes
Sequence (P08913 1-465): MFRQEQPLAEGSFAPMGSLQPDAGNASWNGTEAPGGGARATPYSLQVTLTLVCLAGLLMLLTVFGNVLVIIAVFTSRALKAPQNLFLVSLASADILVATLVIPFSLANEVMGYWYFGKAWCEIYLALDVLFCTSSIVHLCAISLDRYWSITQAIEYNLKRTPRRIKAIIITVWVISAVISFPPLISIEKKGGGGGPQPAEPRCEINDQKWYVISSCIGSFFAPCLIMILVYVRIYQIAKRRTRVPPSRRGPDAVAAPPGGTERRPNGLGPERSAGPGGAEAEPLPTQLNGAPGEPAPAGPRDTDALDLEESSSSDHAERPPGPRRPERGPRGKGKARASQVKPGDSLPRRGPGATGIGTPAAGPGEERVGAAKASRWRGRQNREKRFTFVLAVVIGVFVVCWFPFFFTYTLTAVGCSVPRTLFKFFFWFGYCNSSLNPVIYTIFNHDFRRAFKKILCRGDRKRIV
Experiment: Competition binding, [3H]-UK14304, α2a CHO cell membranes
Conditions: [3H]-UK14304; read-out: Ki, a2a Binding (class symbol)
pKi: −log10 of the molar value.
experimental.readout: pKi

Q: Reported pKi for O=C(O)C(O)c1cccc(O)c1 (stereo not shown) [3-hydroxymandelic acid] : what is it?
Ans: < 4.00
